assay: Plasma and brain concentrations, brain:plasma ratio in rats 2 hr after single PO 1 mg/kg (Example 5); assay type: in vivo; conditions: male, Sprague-Dawley, rat; rats, brain to plasma, 2 hr after single PO 1 mg/kg; read-out: Mean Tissue/Plasma Conc. Ratio
Measured endpoint: Kp at 2 hr
Could you keep your reply to the number by itself?

## Task So what's the measured Kp at 2 hr for this one? "Cc1cc(Nc2cc(N)ncn2)c(=O)n2c1C(=O)NC21CCC2(CC2)CC1"
## Result 0.083

###

test: PK study in male Sprague-Dawley rats dosed once per day for five days, PO 1 mg/kg, 0.5% HPMC (Example 6); format: in vivo; details: male, Sprague-Dawley, rat, in vivo, po, 1 mg/kg, male Sprague-Dawley rats, single (first) PO 1 mg/kg dose, 0.5% HPMC suspension; mean (n = 3)
Measured endpoint: AUC(0-t) (ng·h/mL)
Give just the number in ng·h/mL; leave the unit off.

## Task So what's the measured AUC(0-t) for this one? "Cc1cc(Nc2cc(N)ncn2)c(=O)n2c1C(=O)NC21CCC2(CC2)CC1"
## Result 31800

###

test: PK study in male Sprague-Dawley rats, IV 0.5 mg/kg and PO 1 mg/kg in 10% DMA/PG (Example 5); assay type: in vivo; details: male, Sprague-Dawley, rat, in vivo, iv, 0.5 mg/kg, MRTinf
Measured endpoint: MRT inf (h)
Give just the number in h; leave the unit off.

## Task So what's the measured MRT inf for this one? "Cc1cc(Nc2cc(N)ncn2)c(=O)n2c1C(=O)NC21CCC2(CC2)CC1"
## Result 7.69

###

test: PK study in male Sprague-Dawley rats dosed once per day for five days, PO 10 mg/kg, 0.5% HPMC (Example 7); type: in vivo; settings: male, Sprague-Dawley, rat, in vivo, po, 10 mg/kg, male Sprague-Dawley rats, single PO 10 mg/kg dose, 0.5% HPMC suspension; individual animals; read-out: AUCinf
Measured endpoint: AUC(0-inf) (µg·h/mL)
Give just the number in µg·h/mL; leave the unit off.

## Task So what's the measured AUC(0-inf) for this one? "Cc1cc(Nc2cc(N)ncn2)c(=O)n2c1C(=O)NC21CCC2(CC2)CC1"
## Result 255

###

assay: PK study in male Sprague-Dawley rats, IV 0.5 mg/kg and PO 1 mg/kg in 10% DMA/PG (Example 5); format: in vivo; conditions: male, Sprague-Dawley, rat, in vivo, po, 1 mg/kg, AUCinf
Measured endpoint: AUC(0-inf) (ng·h/mL)
Give just the number in ng·h/mL; leave the unit off.

## Task So what's the measured AUC(0-inf) for this one? "Cc1cc(Nc2cc(N)ncn2)c(=O)n2c1C(=O)NC21CCC2(CC2)CC1"
## Result 7020

###

test: PK study in CD-1 male mice with IV and PO dosing (Example 3); type: in vivo; settings: male, CD-1, mouse, in vivo, iv, 1.5 mg/kg, MRTinf
Measured endpoint: MRT inf
Just so you know, I need the unit written after the number.

## Task So what's the measured MRT inf for this one? "Cc1cc(Nc2cc(N)ncn2)c(=O)n2c1C(=O)NC21CCC2(CC2)CC1"
## Result 4.93 h

###

tested on: eIF4E phosphorylation at Serine 209 in HEK 293 cells; experiment: eIF4E phosphorylation in HEK 293 cells (phospho-specific antibody, fluorescent plate reader); assay type: cell-based; conditions: Homo sapiens, HEK293; eIF4E phosphorylation at Serine 209, 2 hours exposure; read-out: HEK 293 cell;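 further: Well-level p-eIF4E immunofluorescence normalized to DAPI signal, expressed as percent eIF4E phosphorylation, with IC50 derived from concentration-response curves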
Measured endpoint: IC50 (nM)
Give just the number in nM; leave the unit off.

## Task So what's the measured IC50 for this one? Cc1cc(Nc2cc(N)ncn2)c(=O)n2c1C(=O)NC21CCCC2(CC2)C1 (centres unmarked) [4ET-01-042]
## Result 0.8

## Task So what's the measured IC50 for this one? Cc1cc(Nc2cc(N)ncn2)c(=O)n2c1C(=O)NC21C=CC2(CC2)CC1 (centres unmarked) [4ET-01-051]
## Result 7.3

## Task So what's the measured IC50 for this one? Cc1cc(Nc2cc(NC(=O)[C@H]3[C@@H]4CNC[C@@H]43)ncn2)c(=O)n2c1C(=O)NC21CCC2(CC2)CC1 [4ET-03-056]
## Result 11.1

## Task So what's the measured IC50 for this one? Cc1cc(Nc2cc(N)ncn2)c(=O)n2c1C(=O)NC21CC2(CCC2)C1 [4ET-01-009]
## Result 3.6

## Task So what's the measured IC50 for this one? Cc1cc(Nc2cc(N)ncn2)c(=O)n2c1C(=O)NC21CCC2(CC2)CC1 [4ET-03-053]
## Result 10.1

## Task So what's the measured IC50 for this one? Cc1cc(Nc2cc(NC(=O)C3CC4(C3)CN(C)C4)ncn2)c(=O)n2c1C(=O)NC21CCC2(CC2)CC1 [4ET-03-060]
## Result 6.5

## Task So what's the measured IC50 for this one? Cc1cc(Nc2cc(N)ncn2)c(=O)n2c1C(=O)NC21CCC2(CC1)CC2(F)F (centres unmarked) [4ET-03-068]
## Result 3.4

## Task So what's the measured IC50 for this one? Cc1cc(Nc2cc(N)ncn2)c(=O)n2c1C(=O)NC21CCC2(CCC2)CC1 [4ET-01-019]
## Result 4.9

###

target: recombinant full length human kinase MNK2 (Homo sapiens); construct: the recombinant full length human kinase MNK2; made in house; host or cells: insect cells; experiment: MNK2 radiometric kinase activity assay; format: biochemical; conditions: radiometric activity assay; read-out: MNK2
Sequence (Q9HBH9 whole entry): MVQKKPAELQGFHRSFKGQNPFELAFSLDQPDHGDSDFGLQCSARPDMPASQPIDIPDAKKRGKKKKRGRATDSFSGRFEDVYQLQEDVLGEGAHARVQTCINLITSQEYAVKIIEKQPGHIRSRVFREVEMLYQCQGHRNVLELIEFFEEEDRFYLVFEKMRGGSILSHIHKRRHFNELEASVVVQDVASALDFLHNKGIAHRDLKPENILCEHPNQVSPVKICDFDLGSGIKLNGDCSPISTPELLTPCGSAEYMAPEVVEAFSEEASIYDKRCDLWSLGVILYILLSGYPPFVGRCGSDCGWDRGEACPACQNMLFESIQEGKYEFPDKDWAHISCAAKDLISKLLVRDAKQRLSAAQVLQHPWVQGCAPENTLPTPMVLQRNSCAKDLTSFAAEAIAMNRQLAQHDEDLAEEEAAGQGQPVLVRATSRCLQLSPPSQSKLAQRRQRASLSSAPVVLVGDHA
Answer each item with its documented IC50.
Give just the number in nM; leave the unit off.

## Task So what's the measured IC50 for this one? Cc1cc(Nc2cc(N)ncn2)c(=O)n2c1C(=O)NC21CC2(CCC2)C1 [4ET-01-009]
## Result 0.8

## Task So what's the measured IC50 for this one? Cc1cc(Nc2cc(N)ncn2)c(=O)n2c1C(=O)NC21CC2(CCCCC2)C1 [4ET-01-020]
## Result 3

## Task So what's the measured IC50 for this one? Cc1cc(Nc2cc(NC(=O)C3CC4(C3)CN(C)C4)ncn2)c(=O)n2c1C(=O)NC21CCC2(CC2)CC1 [4ET-03-060]
## Result 1.7

## Task So what's the measured IC50 for this one? Cc1cc(Nc2cc(N)ncn2)c(=O)n2c1C(=O)NC21CC2(CC(F)(F)C2)C1 [4ET-01-017]
## Result 7.9

## Task So what's the measured IC50 for this one? Cc1cc(Nc2cc(N)ncn2)c(=O)n2c1C(=O)NC21CCC2(CCC2)CC1 [4ET-01-019]
## Result 4.2

## Task So what's the measured IC50 for this one? Cc1cc(Nc2cc(NCCO)ncn2)c(=O)n2c1C(=O)NC21CCC2(CC2)CC1 [4ET-03-074]
## Result 3.1

## Task So what's the measured IC50 for this one? Cc1cc(Nc2cc(NC(=O)[C@H]3[C@@H]4CNC[C@@H]43)ncn2)c(=O)n2c1C(=O)NC21CCC2(CC2)CC1 [4ET-03-056]
## Result 3.5

## Task So what's the measured IC50 for this one? Cc1cc(Nc2cc(NC(=O)C3CC3)ncn2)c(=O)n2c1C(=O)NC21CCC2(CC1)CN2C(=O)OCc1ccccc1 (stereo not drawn) [4ET-03-046]
## Result 1.7

## Task So what's the measured IC50 for this one? Cc1cc(Nc2cc(NC(=O)C3(CN(C)C)CC3)ncn2)c(=O)n2c1C(=O)NC21CCC2(CC2)CC1 [4ET-03-081]
## Result 10.1

## Task So what's the measured IC50 for this one? Cc1cc(Nc2cc(N)ncn2)c(=O)n2c1C(=O)NC21CCC2(CC1)CC2(F)F (stereo not drawn) [4ET-03-068]
## Result 1.5

## Task So what's the measured IC50 for this one? Cc1cc(Nc2cc(NC(=O)C3(CNS(C)(=O)=O)CC3)ncn2)c(=O)n2c1C(=O)NC21CCC2(CC2)CC1 [4ET-03-076]
## Result 12.2

## Task So what's the measured IC50 for this one? Cc1cc(Nc2cc(NC(=O)[C@H]3[C@@H]4CN(C)C[C@@H]43)ncn2)c(=O)n2c1C(=O)NC21CCC2(CC2)CC1 [4ET-03-061]
## Result 1.7

## Task So what's the measured IC50 for this one? Cc1cc(Nc2cc(NC(=O)C3(CN)CC3)ncn2)c(=O)n2c1C(=O)NC21CCC2(CC2)CC1 [4ET-03-055]
## Result 29.5

## Task So what's the measured IC50 for this one? Cc1cc(Nc2cc(NC(=O)C3CC3)ncn2)c(=O)n2c1C(=O)NC21CCC2(CC1)CNC2 [4ET-03-049]
## Result 2.8

## Task So what's the measured IC50 for this one? Cc1cc(Nc2cc(N)ncn2)c(=O)n2c1C(=O)NC21CCC2(CC2)CC1 [4ET-03-053]
## Result 20.9

## Task So what's the measured IC50 for this one? Cc1cc(Nc2cc(N)ncn2)c(=O)n2c1C(=O)NC21CCCC2(CC2)C1 (stereo not drawn) [4ET-01-042]
## Result 2

## Task So what's the measured IC50 for this one? Cc1cc(Nc2cc(NC(=O)C3CC3)ncn2)c(=O)n2c1C(=O)NC21CCC2(CC1)CN(C(=O)OC(C)(C)C)C2 [4ET-03-048]
## Result 5.2

## Task So what's the measured IC50 for this one? Cc1cc(Nc2cc(N)ncn2)c(=O)n2c1C(=O)NC21CCCC2(CC2)CC1 (racemic) [rac-4ET-01-027]
## Result 1.6

## Task So what's the measured IC50 for this one? Cc1cc(Nc2cc(N)ncn2)c(=O)n2c1C(=O)NC21CC2(CCCC2)C1 [4ET-01-018]
## Result 4.1

## Task So what's the measured IC50 for this one? Cc1cc(Nc2cc(N)ncn2)c(=O)n2c1C(=O)NC21CCC2(CCCC2)C1 (stereo not drawn) [4ET-01-016]
## Result 3.5

## Task So what's the measured IC50 for this one? Cc1cc(Nc2cc(N)ncn2)c(=O)n2c1C(=O)NC21C=CC2(CC2)CC1 (stereo not drawn) [4ET-01-051]
## Result 3.1

Hello, the source for this data is patent US20250186436A1, in case you need it.
